- study_system: T1, hTNFRSF12 amino acids a28-80-S40R-hIgG1-Fc (human)
- T1 construct: TWEAKR-Fc mutein, coated on the ELISA plate; also called TPP-1987
- test_description: ELISA: TWEAKR-Fc construct coated at 62 ng/ml, biotinylated IgG titrated from 100 nM; token + marks IC50 of 1 to […] pM

# binder, binding result
data = [
    ("18.3.3(TPP-2193) (antibody, mouse IgG2a, kappa, V domains shown, murine IgG2a; variable domains from WO2009/020933 with a murine IgG2 constant region added; biotinylated IgG in the ELISA) VH: EVKLGESGGGLVQPGGSMKLSCVASGFPFTKYWMNWVRQSPEKGLEWVAEIRLKSDNYATHYAESAKGRFTISRDDSRSSVYLQMNNLRAEDTAIYYCSPTYADTMDYWGQGTSVTVSS VL: DIVLTQSPASLAVSLGQRATISCKASQSVSTSTYSYMQWYQQRPGQSPKLLIKYASKLDSGVPARFSGSGSGTDFTLNIHPVEEEDTATYYCQHSWELPYTFGGGTRLEIKR", "binds"),
    ("136.1(TPP-2194) (antibody, mouse IgG2a, kappa, V domains shown, murine IgG2a; variable domains from WO2009/020933 with a murine IgG2 constant region added; biotinylated IgG in the ELISA) VH: EVKLEESGGGLVQPGGSMKLSCVASGFTFNNYWMSWVRQSPEKGLEWLAEIRLKSDNYATHYAESVKGKFTISRDDSKSRLYLQMNNLRAENTGIYYCTGGFADYFDYWGQGTTLTVSS VL: DIVLTQSPASLTVSLGQRATISCRASQSVSTSSYSYMQWYQQRPGQPPKLLIKYATNLDSGVPARFSGSGSGTDFTLNIHPVEEEDAATYYCQHSWEIPYTFGGGTKLEIKR", "binds"),
]
